# Target Desc: rat TRPV1 heterologously expressed in Chinese hamster ovary (CHO) cells (Rattus norvegicus, UniProt O35433)
# Sequence (O35433 whole entry): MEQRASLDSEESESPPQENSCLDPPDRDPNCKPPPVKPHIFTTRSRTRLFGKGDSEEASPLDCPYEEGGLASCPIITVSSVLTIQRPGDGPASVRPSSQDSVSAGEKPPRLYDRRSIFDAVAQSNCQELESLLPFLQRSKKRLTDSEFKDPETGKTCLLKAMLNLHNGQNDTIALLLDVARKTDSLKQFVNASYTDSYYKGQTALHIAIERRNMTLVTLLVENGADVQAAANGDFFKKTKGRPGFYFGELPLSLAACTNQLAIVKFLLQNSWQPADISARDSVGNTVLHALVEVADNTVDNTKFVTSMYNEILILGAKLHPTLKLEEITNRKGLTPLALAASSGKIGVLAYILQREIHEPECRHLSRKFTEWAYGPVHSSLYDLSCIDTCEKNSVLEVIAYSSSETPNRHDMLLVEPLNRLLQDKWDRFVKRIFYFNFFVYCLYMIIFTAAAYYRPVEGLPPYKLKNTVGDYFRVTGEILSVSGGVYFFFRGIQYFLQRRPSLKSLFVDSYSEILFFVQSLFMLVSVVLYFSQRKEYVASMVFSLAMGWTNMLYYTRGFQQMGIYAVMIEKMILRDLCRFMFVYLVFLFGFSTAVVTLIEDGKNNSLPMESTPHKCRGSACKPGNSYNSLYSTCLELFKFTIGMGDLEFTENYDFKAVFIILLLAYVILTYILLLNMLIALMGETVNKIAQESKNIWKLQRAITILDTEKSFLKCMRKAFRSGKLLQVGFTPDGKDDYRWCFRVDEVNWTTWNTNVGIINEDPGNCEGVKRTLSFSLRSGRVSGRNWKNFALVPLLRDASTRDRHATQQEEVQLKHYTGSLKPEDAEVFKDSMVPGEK
# Type: binding
Result Type: enhancement in binding affinity compared to non-methylated parent

Examples from the recorded data:
* COc1cc(C(C)C(=O)NCc2ccc(C(C)(C)C)cc2)ccc1O (centres unmarked) | 2 fold
* CC(C(=O)NCc1ccc(C(C)(C)C)cc1)c1ccc(O)c(Cl)c1 (centres unmarked) | ~4 fold
* CCCCCCCCCNC(=O)C(C)c1ccc(O)c(OC)c1 (centres unmarked) | 1.5–2 fold

Moving on to the next compound.
Record summary for COc1cc(C(C)C(=O)NCCCc2ccc(C)c(C)c2)ccc1O (centres unmarked) : reported enhancement in binding affinity compared to non-methylated parent = 1.5–2 fold
